The following compounds are shown together with reported ΔTm values.
- Test system: Nucleic Acid
- procedure-summary: Binding affinity to DNA minor groove region CATGGCCATG assessed as change in melting temperature at 6 uM by thermal denaturation study
- Type: nucleic-acid assay
Response body: numeric value in °C, unit text excluded.

These recorded examples may help you get a feel for the data.
Cn1cc(NC(=O)c2cc(NC(=O)Nc3ccccc3)cn2C)cc1C(=O)NCCc1c[nH]c2ccccc12 = 0
Cn1cc(NC(=O)c2cc(NC(=O)CNC(=N)N)cn2C)cc1C(=O)NCCC(=N)N = 0

For the next question, use this compound.
# input Which value of ΔTm has been reported for Cn1cc(NC(=O)c2cc(NC(=O)OCC(Cl)(Cl)Cl)cn2C)cc1C(=O)NCCc1c[nH]c2ccccc12 in the records?
# output 21

Entry source: ChEMBL document CHEMBL1151923
